- System under test: CD137 (Homo sapiens)
- Sequence (Q07011 24-255): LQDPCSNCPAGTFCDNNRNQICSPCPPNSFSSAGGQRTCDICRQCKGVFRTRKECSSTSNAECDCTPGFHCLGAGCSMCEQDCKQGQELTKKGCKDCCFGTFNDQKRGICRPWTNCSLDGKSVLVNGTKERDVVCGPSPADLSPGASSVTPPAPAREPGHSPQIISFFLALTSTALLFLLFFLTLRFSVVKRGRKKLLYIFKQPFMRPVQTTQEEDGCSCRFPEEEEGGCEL
- Assay overview: CD137 Promega reporter cell activity assay (NF-κB luciferase in Jurkat cells)
- Protocol conditions: Average fold induction for CD137L = 4.0
Starred links: 1 amine or outer side, 2 acyl side, 3 side chain; linkers in the order of their positions; H or OH if unused. Positions of bridges follow the written chain, without caps; N, C: chain ends. Non-standard residues stand in square brackets, D forms with d. Chains are numbered I, II in the order given. X2 = O=C(CCOCCN(CCOCCC(=O)NCCOCCOCCOCCOCCOCCOCCOCCOCCOCCOCCOCCOCCOCCOCCOCCOCCOCCOCCOCCOCCOCCOCCOCCn1nnc2c1CCC1C(CC2)C1COC(=O)[*:2])CCOCCC(=O)NCCOCCOCCOCCOCCOCCOCCOCCOCCOCCOCCOCCOCCOCCOCCOCCOCCOCCOCCOCCOCCOCCOCCOCCn1nnc2c1CCC1C(CC2)C1COC(=O)[*:3])NCCOCCOCCOCCOCCOCCOCCOCCOCCOCCOCCOCCOCCOCCOCCOCCOCCOCCOCCOCCOCCOCCOCCOCCn1nnc2c1CCC1C(CC2)C1COC(=O)[*:1]; X3 = O=C(CCOCCN(CCOCCC(=O)NCCOCCOCCOCCOCCOCCOCCOCCOCCOCCOCCn1nnc2c1CCC1C(CC2)C1COC(=O)[*:2])CCOCCC(=O)NCCOCCOCCOCCOCCOCCOCCOCCOCCOCCOCCn1nnc2c1CCC1C(CC2)C1COC(=O)[*:3])NCCOCCOCCOCCOCCOCCOCCOCCOCCOCCOCCn1nnc2c1CCC1C(CC2)C1COC(=O)[*:1]; X1 = O=C(CCOCCN(CCOCCC(=O)NCCOCCOCCOCCOCCOCCOCCOCCOCCOCCOCCn1cc(CCC(=O)[*:2])nn1)CCOCCC(=O)NCCOCCOCCOCCOCCOCCOCCOCCOCCOCCOCCn1cc(CCC(=O)[*:3])nn1)NCCOCCOCCOCCOCCOCCOCCOCCOCCOCCOCCn1cc(CCC(=O)[*:1])nn1; TATA = O=C(CC[*:1])N1CN(C(=O)CC[*:2])CN(C(=O)CC[*:3])C1; Nle = CCCC[C@H](N)C(=O)O
Readout: Average Relative Fold Induction relative to CD137L

Substance	Observed result
I: Ac-ACIEEGKYCFADPY[Nle]CA-NH2 / II: Ac-ACIEEGKYCFADPY[Nle]CA-NH2 / III: Ac-ACIEEGKYCFADPY[Nle]CA-NH2 (linker I:2-I:9-I:16, II:2-II:9-II:16, III:2-III:9-III:16 via TATA; linker I:7-II:7-III:7 via X3) [BCY8151]	0.49
I: Ac-ACIEEGQYCKADPY[Nle]CA-NH2 / II: Ac-ACIEEGQYCKADPY[Nle]CA-NH2 / III: Ac-ACIEEGQYCKADPY[Nle]CA-NH2 (linker I:2-I:9-I:16, II:2-II:9-II:16, III:2-III:9-III:16 via TATA; linker I:10-II:10-III:10 via X3) [BCY8145]	0.95
I: Ac-ACIEEGQYCKADPY[Nle]CA-NH2 / II: Ac-ACIEEGQYCKADPY[Nle]CA-NH2 / III: Ac-ACIEEGQYCKADPY[Nle]CA-NH2 (linker I:2-I:9-I:16, II:2-II:9-II:16, III:2-III:9-III:16 via TATA; linker I:10-II:10-III:10 via X2) [BCY8146]	0.83
I: Ac-ACIEKGQYCFADPY[Nle]CA-NH2 / II: Ac-ACIEKGQYCFADPY[Nle]CA-NH2 / III: Ac-ACIEKGQYCFADPY[Nle]CA-NH2 (linker I:2-I:9-I:16, II:2-II:9-II:16, III:2-III:9-III:16 via TATA; linker I:5-II:5-III:5 via X1) [BCY7835]	1.04
